Data origin: patent US20240158475A1

ASSAY TARGET: DN-III quality control recombinant protein (produced by Fapon Biotech InC.) (dengue virus)
METHOD SUMMARY: BLI, AMC sensor, antibody captured
Threshold check on kon: at or above 40000 M⁻¹ s⁻¹ gives MET, strictly below gives NOT MET.

Record Mutation 1-26 (antibody, V domains shown) VH: EVQLQQSGTELVRPGALVKLSCKASGFNIKDYYLHWVKQRPRQGLEWIGWIDPENGKTLYDPKFQDKASITSDTSTNTAYLQLRSLTSEDTAVYYCVTAYYRFVYWGQGTLVTVSA VL: QIVLTQSPAIMSAFPGERVTMTCSASSSVRYMYWHQQKPGSSPRLLIYDTSNVASGVPVRFSGSGSGTSYSLTISRDEAMDAATYYCQQWSSYPRTFGGGTKLEIKR ; criterion: kon no lower than 40000 M⁻¹ s⁻¹. Met? MET

Record Mutation 1-35 (antibody, V domains shown) VH: EVQLQQSGTELVRPGALVKLSCKASGFNIKDYYLHWVKQRPRQGLEWIGWIDPENGKTLYDPKFQDKASITSDTSTNTAYLQLRSLTSEDTAVYYCVSAYYRFVYWGQGTLVTVSA VL: QIVLTQSPAIMSAFPGERVTMTCSASTSVRYMYWHQQKPGSSPRLLIYDTSNVASGVPVRFSGSGSGTSYSLTISRDEAMDAATYYCQQWSSTPRTFGGGTKLEIKR ; criterion: kon no lower than 40000 M⁻¹ s⁻¹. Met? MET

Record WT 1-4 (antibody, V domains shown) VH: EVQLQQSGTELVRPGALVKLSCKASGFNIKEYYLHWVKQRPRQGLEWIGWIDPDNGKTLYDPKVQDKASITSDTSTNTAYLQLRSLTSEDTAVYYCVTAYYRFVYWGQGTLVTVSA VL: QIVLTQSPAIMSAFPGERVTMTCSASSSVKYMYWHQQKPGSSPRLLIYETSNLASGFPVRFSGSGSGTSYSLTISRDEAMDAATYYCQQQSSFPRTFGGGTKLEIKR ; criterion: kon no lower than 40000 M⁻¹ s⁻¹. Met? NOT MET

Record Mutation 1-11 (antibody, V domains shown) VH: EVQLQQSGTELVRPGALVKLSCKASGFNIKDYYLHWVKQRPRQGLEWIGWIDPENGKTLYDPKFQDKASITSDTSTNTAYLQLRSLTSEDTAVYYCVSAYYRFVYWGQGTLVTVSA VL: QIVLTQSPAIMSAFPGERVTMTCSASSSVRYMYWHQQKPGSSPRLLIYDTSNVASGVPVRFSGSGSGTSYSLTISRDEAMDAATYYCQQWSSFPRTFGGGTKLEIKR ; criterion: kon no lower than 40000 M⁻¹ s⁻¹. Met? NOT MET

Record Mutation 1-32 (antibody, V domains shown) VH: EVQLQQSGTELVRPGALVKLSCKASGFNIKDYYLHWVKQRPRQGLEWIGWIDPENGKTIYDPKFQDKASITSDTSTNTAYLQLRSLTSEDTAVYYCVTAYFRFVYWGQGTLVTVSA VL: QIVLTQSPAIMSAFPGERVTMTCSASSSVRYMYWHQQKPGSSPRLLIYDTSNIASGVPVRFSGSGSGTSYSLTISRDEAMDAATYYCQQWSSTPRTFGGGTKLEIKR ; criterion: kon no lower than 40000 M⁻¹ s⁻¹. Met? NOT MET

---
Record Mutation 1-5 (antibody, V domains shown) VH: EVQLQQSGTELVRPGALVKLSCKASGFNIKDYYLHWVKQRPRQGLEWIGWIDPENGKTIYDPKFQDKASITSDTSTNTAYLQLRSLTSEDTAVYYCVSAYYRFVYWGQGTLVTVSA VL: QIVLTQSPAIMSAFPGERVTMTCSASTSVRYMYWHQQKPGSSPRLLIYDTSNVASGVPVRFSGSGSGTSYSLTISRDEAMDAATYYCQQWSSFPRTFGGGTKLEIKR ; criterion: kon no lower than 40000 M⁻¹ s⁻¹. Met? MET

Record Mutation 1 (antibody, V domains shown) VH: EVQLQQSGTELVRPGALVKLSCKASGFNIKDYYVHWVKQRPRQGLEWIGWIDPENGKTLYDPKFQDKASITSDTSTNTAYLQLRSLTSEDTAVYYCVTAYVRFVYWGQGTLVTVSA VL: QIVLTQSPAIMSAFPGERVTMTCSASSSVRYMYWHQQKPGSSPRLLIYDTSNVASGVPVRFSGSGSGTSYSLTISRDEAMDAATYYCQQWSSTPRTFGGGTKLEIKR ; criterion: kon no lower than 40000 M⁻¹ s⁻¹. Met? NOT MET

Record Mutation 1-17 (antibody, V domains shown) VH: EVQLQQSGTELVRPGALVKLSCKASGFNIKDYYLHWVKQRPRQGLEWIGWIDPENGKTIYDPKFQDKASITSDTSTNTAYLQLRSLTSEDTAVYYCVSAYFRFVYWGQGTLVTVSA VL: QIVLTQSPAIMSAFPGERVTMTCSASTSVRYMYWHQQKPGSSPRLLIYDTSNIASGVPVRFSGSGSGTSYSLTISRDEAMDAATYYCQQWSSFPRTFGGGTKLEIKR ; criterion: kon no lower than 40000 M⁻¹ s⁻¹. Met? NOT MET

Record Mutation 1-16 (antibody, V domains shown) VH: EVQLQQSGTELVRPGALVKLSCKASGFNIKDYYIHWVKQRPRQGLEWIGWIDPENGKTLYDPKFQDKASITSDTSTNTAYLQLRSLTSEDTAVYYCVSAYVRFVYWGQGTLVTVSA VL: QIVLTQSPAIMSAFPGERVTMTCSASSSVRYMYWHQQKPGSSPRLLIYDTSNVASGVPVRFSGSGSGTSYSLTISRDEAMDAATYYCQQWSSYPRTFGGGTKLEIKR ; criterion: kon no lower than 40000 M⁻¹ s⁻¹. Met? NOT MET

Record WT 1-1 (antibody, V domains shown) VH: EVQLQQSGTELVRPGALVKLSCKASGFNIKEYYIHWVKQRPRQGLEWIGWIDPDNGKTIYDPKVQDKASITSDTSTNTAYLQLRSLTSEDTAVYYCVTAYFRFVYWGQGTLVTVSA VL: QIVLTQSPAIMSAFPGERVTMTCSASTSVKYMYWHQQKPGSSPRLLIYETSNIASGFPVRFSGSGSGTSYSLTISRDEAMDAATYYCQQQSSYPRTFGGGTKLEIKR ; criterion: kon no lower than 40000 M⁻¹ s⁻¹. Met? NOT MET
